The values you see were collected from the supplement of paper PMC7877785.

Experiment: self-splicing fitness, log relative to wild type (ln ratio); higher = more splicing; Tetrahymena group I intron in knt gene, E. coli kanamycin selection, DiMSum; sequences stand for … in CUCUCU…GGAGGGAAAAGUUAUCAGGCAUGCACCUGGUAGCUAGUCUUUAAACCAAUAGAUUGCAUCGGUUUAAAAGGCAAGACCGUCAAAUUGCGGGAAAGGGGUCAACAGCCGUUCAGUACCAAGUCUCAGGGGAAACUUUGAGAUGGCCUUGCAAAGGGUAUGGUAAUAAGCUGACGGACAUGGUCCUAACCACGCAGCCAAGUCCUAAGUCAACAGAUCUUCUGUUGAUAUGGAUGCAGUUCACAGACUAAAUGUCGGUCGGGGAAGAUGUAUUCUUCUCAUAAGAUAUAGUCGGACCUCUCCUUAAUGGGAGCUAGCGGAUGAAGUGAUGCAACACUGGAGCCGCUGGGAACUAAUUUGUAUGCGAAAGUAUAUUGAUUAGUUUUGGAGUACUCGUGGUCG;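 further: selection with 25 µg/mL kanamycin versus none on LB agar overnight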
Conditions: 37 °C
Rule: Satisfied for self-splicing fitness (ln) not less than -0.4, Not satisfied for anything less.

CGCGAGCAAUAUUACGCGCC :: Not satisfied
UCGUAGCAAUAUUACGGCCG :: Satisfied
GCGAAGCAAUAUUACGACAC :: Satisfied
UGAUAGCAAUAUUACGCUCC :: Not satisfied
UGGCAGCAAUAUUACGUUGG :: Satisfied
AUCCAGCAAUAUUACGAUCC :: Not satisfied
CUCUAGCAAUAUUACGCAGG :: Not satisfied
GUCUAGCAAUAUUACGGGAG :: Not satisfied

Let us examine a further case.
-- ask Evaluate GUCCAGCAAUAUUACGCACC : self-splicing fitness (ln) at minimum -0.4?
-- reply Not satisfied

---

Experiment: self-splicing fitness, log relative to wild type (ln ratio); higher = more splicing; Tetrahymena group I intron in knt gene, E. coli kanamycin selection, DiMSum; sequences stand for … in CUCUCU…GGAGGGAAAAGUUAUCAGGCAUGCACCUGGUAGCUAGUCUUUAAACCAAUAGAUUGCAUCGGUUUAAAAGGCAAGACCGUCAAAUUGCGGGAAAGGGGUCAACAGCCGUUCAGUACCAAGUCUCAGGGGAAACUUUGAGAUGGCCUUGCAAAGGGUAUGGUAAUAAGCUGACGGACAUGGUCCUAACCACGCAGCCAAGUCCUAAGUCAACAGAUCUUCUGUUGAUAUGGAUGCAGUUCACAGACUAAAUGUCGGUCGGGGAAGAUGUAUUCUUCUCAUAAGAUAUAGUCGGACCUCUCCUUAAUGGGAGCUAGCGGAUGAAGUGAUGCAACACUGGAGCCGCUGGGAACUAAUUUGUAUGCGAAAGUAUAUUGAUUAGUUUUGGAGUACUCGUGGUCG
Details: 37 °C
For each of the sequences below, state its self-splicing fitness (ln).
One number for each entry.

AUCUAGCAAUAUUACGGUUG :: -2.45

Fill in self-splicing fitness (ln) for each of the 4 sequences listed.
1. AUAUAGCAAUAUUACGGUGU
2. GGCGAGCAAUAUUACGAGAA
3. UUGUAGCAAUAUUACGCUGU
4. CACCAGCAAUAUUACGAUGU

-- reply
-1.38
-2.57
-2.49
-0.91

---

Test: self-splicing fitness, log relative to wild type (ln ratio); higher = more splicing; Tetrahymena group I intron in knt gene, E. coli kanamycin selection, DiMSum; sequences stand for … in CUCUCU…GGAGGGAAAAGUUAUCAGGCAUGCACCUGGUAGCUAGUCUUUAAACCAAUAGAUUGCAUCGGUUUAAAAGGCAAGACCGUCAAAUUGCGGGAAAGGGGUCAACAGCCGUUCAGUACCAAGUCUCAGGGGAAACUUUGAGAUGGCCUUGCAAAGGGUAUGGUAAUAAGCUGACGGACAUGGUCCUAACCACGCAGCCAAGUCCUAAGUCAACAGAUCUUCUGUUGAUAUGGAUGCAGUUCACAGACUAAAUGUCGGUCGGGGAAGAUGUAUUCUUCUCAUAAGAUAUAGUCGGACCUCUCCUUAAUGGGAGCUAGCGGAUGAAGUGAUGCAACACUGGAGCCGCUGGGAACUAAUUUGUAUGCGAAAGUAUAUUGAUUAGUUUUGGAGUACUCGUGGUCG
Conditions: 30 °C
Range-based classes on measured self-splicing fitness (ln): lower band (below -3), central band (-3 to below -2), upper band (-2 or more)

Below are worked cases with known answers.
AUCUAGCAAUAUUACGGUUG :: central band
GAAGAGCAAUAUUACGUUAU :: lower band
GGGGAGCAAUAUUACGGGGU :: lower band
AUCUAGCAAUAUUACGCUUA :: upper band

-- ask Please classify: CCUAAGCAAUAUUACGGCGG
-- reply lower band

-- ask Another sequence to look at: UCGCAGCAAUAUUACGCGGG
-- reply lower band
